- Target of assay: Monoamine transporters; serotonin & dopamine (Rattus norvegicus) (UniProt P31652+P23977)
- Sequence (P23977 whole entry, looked up): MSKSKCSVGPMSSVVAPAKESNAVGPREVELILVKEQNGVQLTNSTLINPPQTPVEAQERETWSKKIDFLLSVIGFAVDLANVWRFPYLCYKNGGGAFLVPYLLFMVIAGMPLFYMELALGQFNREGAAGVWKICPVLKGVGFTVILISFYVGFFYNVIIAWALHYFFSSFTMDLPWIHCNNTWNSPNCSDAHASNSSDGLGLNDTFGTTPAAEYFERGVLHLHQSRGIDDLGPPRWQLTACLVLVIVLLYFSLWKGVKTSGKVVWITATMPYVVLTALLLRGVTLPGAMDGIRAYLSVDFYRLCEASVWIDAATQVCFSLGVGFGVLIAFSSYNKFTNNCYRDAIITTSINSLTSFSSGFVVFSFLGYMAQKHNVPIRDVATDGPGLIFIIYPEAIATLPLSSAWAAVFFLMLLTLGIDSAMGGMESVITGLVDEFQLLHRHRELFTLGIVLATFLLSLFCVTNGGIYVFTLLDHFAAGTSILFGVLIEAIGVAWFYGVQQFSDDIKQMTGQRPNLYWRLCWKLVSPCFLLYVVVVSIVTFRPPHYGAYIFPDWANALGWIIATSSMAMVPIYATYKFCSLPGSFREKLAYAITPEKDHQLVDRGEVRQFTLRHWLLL
- Sequence (P31652 whole entry, looked up): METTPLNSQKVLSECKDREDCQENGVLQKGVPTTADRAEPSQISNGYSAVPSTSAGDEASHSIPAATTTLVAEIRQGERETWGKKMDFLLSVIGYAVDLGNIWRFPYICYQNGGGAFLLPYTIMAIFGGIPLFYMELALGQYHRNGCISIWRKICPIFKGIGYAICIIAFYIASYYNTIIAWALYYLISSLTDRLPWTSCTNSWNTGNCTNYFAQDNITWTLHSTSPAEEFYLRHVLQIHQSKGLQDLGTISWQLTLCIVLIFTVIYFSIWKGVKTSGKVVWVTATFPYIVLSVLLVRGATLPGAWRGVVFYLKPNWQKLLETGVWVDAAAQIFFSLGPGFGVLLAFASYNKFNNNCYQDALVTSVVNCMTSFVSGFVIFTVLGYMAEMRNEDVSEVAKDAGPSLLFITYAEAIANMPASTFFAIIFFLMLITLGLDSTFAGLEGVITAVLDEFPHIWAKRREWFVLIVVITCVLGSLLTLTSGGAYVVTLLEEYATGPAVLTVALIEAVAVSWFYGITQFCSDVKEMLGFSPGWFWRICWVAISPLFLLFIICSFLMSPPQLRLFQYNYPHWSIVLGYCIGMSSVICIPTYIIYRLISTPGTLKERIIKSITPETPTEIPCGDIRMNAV
- Method summary: Ratio of binding affinities of Serotonin transporter vs Dopamine transporter reuptake
- Assay type: protein assay
Recorded endpoint: Ratio
Give bare numbers.

Reference set (10 entries):
- CC(C)(CNCCCc1ccccc1)CNCCOC(c1ccccc1)c1ccccc1: 23
- c1ccc(CCCN2CCCN(CCOC(c3ccccc3)c3ccccc3)CC2)cc1: 4740
- Fc1ccc(C(OCCN2CCCN(C/C=C/c3ccccc3)CC2)c2ccc(F)cc2)cc1: 69
- c1ccc(C(OCCN2CCN(CCOC(c3ccccc3)c3ccccc3)CC2)c2ccccc2)cc1: 1.3
- Oc1cccc(CCCNC[C@@H]2CCCN2CCOC(c2ccccc2)c2ccccc2)c1: 28
- c1ccc(C(OCCN2CCNCC2)c2ccccc2)cc1: 1.1
- Fc1ccc(C(OCCN2CCCNCC2)c2ccc(F)cc2)cc1: 122
- c1ccc(CCCNC[C@H]2CCCN2CCOC(c2ccccc2)c2ccccc2)cc1: 25
- C[C@@H]1CN(CCOC(c2ccc(F)cc2)c2ccc(F)cc2)[C@@H](C)CN1: 298
- C[C@@H]1CN(CCOC(c2ccccc2)c2ccccc2)[C@@H](C)CN1: 183

For each listed entry, give its Ratio.
1. c1ccc(CCCNC2CCCCN(CCOC(c3ccccc3)c3ccccc3)C2)cc1 (stereo unspecified)
2. Fc1ccc(C(OCCN2CCN(CCOC(c3ccc(F)cc3)c3ccc(F)cc3)CC2)c2ccc(F)cc2)cc1
3. C(=C\c1ccccc1)/CN1CCCN(CCOC(c2ccccc2)c2ccccc2)CC1
4. c1ccc(CCCNCCCCNCCOC(c2ccccc2)c2ccccc2)cc1

Result ::
159
5.5
838
11

Dear colleague, could you send me Ratio for each of the items below? Thanks.
1. Fc1ccc(C(OCCN2CCCN(CCCc3ccccc3)CC2)c2ccc(F)cc2)cc1
2. C[C@@H]1CN(CCCc2ccccc2)[C@@H](C)CN1CCCc1ccccc1

Result ::
1. 33
2. 0.1

====

Please go through the items and note down their pIC50.
- Target of assay: Sodium-dependent dopamine transporter (Rattus norvegicus, UniProt P23977)
- Sequence (P23977 whole entry): as the sequence (P23977 whole entry, looked up) above
- Method summary: Inhibition of dopamine DA reuptake
Numbers only, as −log10 of the molar value.

Below, each entry is followed by its recorded pIC50 result.
* c1ccc(C(OCCN2CCNCC2)c2ccccc2)cc1 | 6.91
* c1ccc(CCCN2CCN(CCCc3ccccc3)CC2)cc1 | 5.79
* c1ccc(CCCN2CCCCN(CCOC(c3ccccc3)c3ccccc3)CC2)cc1 | 7.03
* Fc1ccc(C(OCCN2CCCNCC2)c2ccc(F)cc2)cc1 | 7.77
* CC(C)(CN)CNCCOC(c1ccccc1)c1ccccc1 | 6.34
* C[C@@H]1CN(CCOC(c2ccccc2)c2ccccc2)[C@@H](C)CN1C/C=C/c1ccccc1 | 7.70
* c1ccc(C(OCCN2CCN(CCOC(c3ccccc3)c3ccccc3)CC2)c2ccccc2)cc1 | 7.92
* C[C@@H]1CN(CCOC(c2ccc(F)cc2)c2ccc(F)cc2)[C@@H](C)CN1 | 7.52
* Fc1ccc(C(OCCN2CCC[C@H]2CNCCCc2ccccc2)c2ccc(F)cc2)cc1 | 7.54
* C(=C\c1ccccc1)/CN1CCCN(CCOC(c2ccccc2)c2ccccc2)CC1 | 9.22

Report pIC50 for every entry below.
1. C[C@@H]1CN(CCCc2ccccc2)[C@@H](C)CN1CCCc1ccccc1
2. c1ccc(CCCNC[C@H]2CCCN2CCOC(c2ccccc2)c2ccccc2)cc1
3. Fc1ccc(C(OCCN2CCN(CCOC(c3ccc(F)cc3)c3ccc(F)cc3)CC2)c2ccc(F)cc2)cc1
4. CC(C)(CNCCCc1ccccc1)CNCCOC(c1ccccc1)c1ccccc1
5. c1ccc(C(OCCN2CCCNCC2)c2ccccc2)cc1
6. Fc1ccc(C(OCCN2CCCN(CCCc3ccccc3)CC2)c2ccc(F)cc2)cc1
7. C[C@@H]1CN(CCOC(c2ccccc2)c2ccccc2)[C@@H](C)CN1
8. Oc1cccc(CCCNC[C@@H]2CCCN2CCOC(c2ccccc2)c2ccccc2)c1

Result ::
1. 5.88
2. 6.90
3. 7.40
4. 7.08
5. 6.19
6. 8.47
7. 6.86
8. 7.51

Batch of 4 compounds: report pIC50 for each.
1. C[C@@H]1CN(CCOC(c2ccccc2)c2ccccc2)[C@@H](C)CN1CCOC(c1ccccc1)c1ccccc1
2. CNCCN(C)CCOC(c1ccccc1)c1ccccc1
3. CC1(C)CN(CCCc2ccccc2)CCN(CCOC(c2ccccc2)c2ccccc2)C1
4. Fc1ccc(C(OCCN2CCNCC2)c2ccc(F)cc2)cc1

Result ::
7.46
6.26
7.06
7.15

Reference source for all entries: ChEMBL document CHEMBL1129408
